# target.desc: CDK4/cyclinD1 enzyme complex (Homo sapiens, UniProt P11802)
# Sequence (P11802 whole entry): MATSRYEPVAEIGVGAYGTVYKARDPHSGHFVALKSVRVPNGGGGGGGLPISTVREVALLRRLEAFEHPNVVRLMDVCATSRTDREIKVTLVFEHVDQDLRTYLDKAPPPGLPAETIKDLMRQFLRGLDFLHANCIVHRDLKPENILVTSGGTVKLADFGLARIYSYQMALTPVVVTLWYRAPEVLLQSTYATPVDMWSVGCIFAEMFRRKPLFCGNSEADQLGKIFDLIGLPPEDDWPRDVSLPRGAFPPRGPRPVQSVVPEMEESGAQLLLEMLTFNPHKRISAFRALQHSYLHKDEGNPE
# Sequence (P24385 whole entry partner): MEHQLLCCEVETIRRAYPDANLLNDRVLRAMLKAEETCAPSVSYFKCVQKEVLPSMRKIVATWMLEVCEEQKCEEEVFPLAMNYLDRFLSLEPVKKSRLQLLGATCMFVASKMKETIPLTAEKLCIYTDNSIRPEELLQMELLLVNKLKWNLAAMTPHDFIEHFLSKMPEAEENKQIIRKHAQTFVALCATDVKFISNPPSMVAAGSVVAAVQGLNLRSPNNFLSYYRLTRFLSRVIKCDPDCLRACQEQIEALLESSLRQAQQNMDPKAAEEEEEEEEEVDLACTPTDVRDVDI
# assay.method.text: In vitro scintillation proximity assay (SPA) for CDK4 inhibitory activity
# Assay type: biochemical
# assay.setup: GST-pRb substrate, 33P-ATP, 25° C. 30 minutes, read-out: cdk4 SPA see C.4 (pIC50) (converted)
# Description: Compounds of the present invention were tested in an in vitro assay based on SPA technology. In principle, the assay relies upon the well established SPA technology for the detection of CDK4 phosphorylated proteins, i.e pRb. This phosphorylation is performed using I0 CDK4/cyclinD1 enzyme complex and ^33P-ATP as phosphor donor. The CDK4 SPA kinase reaction is performed at 25° C. for 30 minutes in a 96-well microtiter plate. […]
property.measured: IC50 (nM)

Please tell me: IC50 of `O=c1[nH]n(C2CCCC2)c2nc(Nc3ccc(N4CCC(CCCO)CC4)cc3)ncc12` , system CDK4/cyclinD1 enzyme complex (Homo sapiens, UniProt P11802)?
2510

A: O=c1[nH]n(C2CCCC2)c2nc(Nc3ccc(N4CCOCC4)cc3)ncc12
B: O=c1[nH]n(C2CCCCC2)c2nc(Nc3ccc(N4CCC(CCCO)CC4)cc3)ncc12
C: OCCCC1CCN(c2ccc(Nc3ncc4cnn(C5CCCCC5)c4n3)cc2)CC1
List items by IC50 in falling order. Note for the reader: the ranking is given by listing the labels in the order requested.
A, B, C
(A: 2510 nM, B: 1000 nM, C: 12.6 nM)

---

# target.desc: CDK4/cyclinD1 (Homo sapiens)
# assay.method.text: In vitro filtration assay for CDK4 inhibitory activity (pRb phosphorylation, [33P]-ATP)
# Assay type: biochemical
# assay.setup: GST-pRb substrate, 1 μM unlabeled ATP, 25° C. 45 minutes, read-out: cdk4 filter (pIC50) (converted)
property.measured: IC50 (nM)

Answered cases to consult:
Need IC50, item `c1cc(Nc2ncc3cnn(C4CCCCC4)c3n2)ncc1N1CCNCC1`
50.1

Query: IC50; subject: `O=c1[nH]n(C2CCCC2)c2nc(Nc3ccc(N4CCOCC4)cc3)ncc12`
5010

Query (compound): `O=c1[nH]n(C2CCCCC2)c2nc(Nc3ccc(N4CCC(CCCO)CC4)cc3)ncc12` ; field requested: IC50
1580

A: CC(=O)N1CCN(c2ccc(Nc3ncc4cnn(C5CCCCC5)c4n3)cc2)CC1
B: CN1CCN(c2ccc(Nc3ncc4[nH]c(=O)n([C@H]5C[C@@H]6CC[C@H]5C6)c4n3)cc2)CC1
Please tell me which of the two, A or B , has the higher reported IC50 value. Mark your selection by writing its label.
A

a: CN1CCC(NCc2ccc(Nc3ncc4cnn(C5CCCCC5)c4n3)cc2)CC1
b: CC(C)(O)CN1CCN(C(=O)c2ccc(Nc3ncc4cnn(C5CCCCC5)c4n3)cc2)CC1
Sorting by IC50 in descending order, would a or b appear first? Pick one and reply with its label.
b

---

# target.desc: AURORA A (Homo sapiens, UniProt O14965)
# Sequence (O14965 1-403): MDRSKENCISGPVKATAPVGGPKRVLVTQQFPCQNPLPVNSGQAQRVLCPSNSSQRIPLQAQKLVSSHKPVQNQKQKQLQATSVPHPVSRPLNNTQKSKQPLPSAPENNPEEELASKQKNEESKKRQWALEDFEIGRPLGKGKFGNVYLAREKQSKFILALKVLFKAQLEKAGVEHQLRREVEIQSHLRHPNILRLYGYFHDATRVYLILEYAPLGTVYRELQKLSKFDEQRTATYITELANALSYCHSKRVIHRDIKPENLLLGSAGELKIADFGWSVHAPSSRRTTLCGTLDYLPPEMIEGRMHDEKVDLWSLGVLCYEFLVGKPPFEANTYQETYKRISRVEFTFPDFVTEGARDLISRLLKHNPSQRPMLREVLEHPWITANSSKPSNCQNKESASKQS
# assay.method.text: In vitro filtration assay for AURORA A inhibitory activity
# Type: biochemical
# assay.setup: Kemptide substrate, 1 μM unlabeled ATP, 25° C. 40 minutes, read-out: Aurora A see C.2 (pIC50) (converted)
property.measured: IC50 (nM)

I have this molecule here, `CC(C)(C)OC(=O)N1CCC(N(Cc2ccc(Nc3ncc4cnn(C5CCCCC5)c4n3)cc2)C(=O)OC(C)(C)C)CC1` , and I need its recorded IC50.
1260

Tell me the measured IC50 of `c1cc(Nc2ncc3cnn(C4CCOCC4)c3n2)ccc1CN1CCOCC1` , please.
1000

Looking for the measured IC50 of `CC(C)(O)CN1CCN(c2ccc(Nc3ncc4cnn(C5CCCCC5)c4n3)cc2)CC1` , can you help?
251

Which IC50 is reported for this molecule? `NS(=O)(=O)N1CCN(c2ccc(Nc3ncc4cnn(C5CCCCC5)c4n3)cc2)CC1`
200

P: CC(C)(O)CN1CCC(NC(=O)c2ccc(Nc3ncc4cnn(C5CCCCC5)c4n3)cc2)CC1
Q: CN1CCN(c2ccc(Nc3ncc4cnn(C5CCCC5)c4n3)cc2)CC1
Looking at P and Q , which one comes out lower in IC50 terms? Pick one; state its label.
Q

P: CN1CCC(NCc2ccc(Nc3ncc4cnn([C@H]5C[C@@H]6CC[C@H]5C6)c4n3)cc2)CC1
Q: COCCCN1CCN(Cc2ccc(Nc3ncc4cnn(C5CCCCC5)c4n3)cc2)CC1
R: c1ccc(N2CCN(c3ccc(Nc4ncc5cnn(C6CCCCC6)c5n4)cc3)CC2)nc1
S: CN1CCN(Cc2ccc(Nc3ncc4cnn(C5CCOCC5)c4n3)cc2)CC1
T: OCCN1CCN(Cc2ccc(Nc3ncc4cnn(C5CCCCC5)c4n3)cc2)CC1
Sort ascending by IC50. Provide the ranking by listing each label in its place in the requested order.
R, Q, T, P, S
(R: 39.8 nM, Q: 126 nM, T: 200 nM, P: 631 nM, S: 1260 nM)

---

# target.desc: CDK4/cyclinD1 (Homo sapiens, UniProt P11802)
# Sequence (P11802 whole entry): as the sequence (P11802 whole entry) above
# Sequence (P24385 whole entry partner): as the sequence (P24385 whole entry partner) above
# assay.method.text: In vitro filtration assay for CDK4 inhibitory activity (pRb phosphorylation, [33P]-ATP)
# Type: biochemical
# assay.setup: GST-pRb substrate, 1 μM unlabeled ATP, 25° C. 45 minutes, read-out: cdk4 filter (pIC50) (converted)
property.measured: IC50 (µM)

Any idea what IC50 was measured for `c1cc(N2CCOCC2)ccc1Nc1ncc2cnn(C3CCCCC3)c2n1` ?
0.0398

For `CN1CCN(c2ccc(Nc3ncc4[nH]c(=O)n(C5CCCCC5)c4n3)cc2Cl)CC1` , what is its reported IC50?
0.631

A: CN1CCC(NCc2ccc(Nc3ncc4cnn(C5CCOCC5)c4n3)cc2)CC1
B: CN1CCN(Cc2ccc(Nc3ncc4[nH]c(=O)n(C5CCCCC5)c4n3)cc2)CC1
Between A and B , whose measured IC50 reads higher? // caller expects the label of the chosen entry
B

---

# target.desc: AURORA A (Homo sapiens, UniProt O14965)
# assay.method.text: In vitro filtration assay for AURORA A inhibitory activity
# Assay type: biochemical
# assay.setup: Kemptide substrate, 1 μM unlabeled ATP, 25° C. 40 minutes, read-out: Aurora A see C.2 (pIC50) (converted)
property.measured: IC50 (µM)

Worked cases, IC50 given:
Using the record for `CC(C)(O)CN1CCN(Cc2ccc(Nc3ncc4cnn(C5CCCCC5)c4n3)cc2)CC1` , report its IC50.
1

Requested field: IC50. Item: `COCCCN1CCN(c2ccc(Nc3ncc4c(n3)N(C3CCCCC3)C(=O)C4)cc2)CC1`
1.58

What value of measured IC50 is listed for CN1CCN(c2ccc(Nc3ncc4cnn([C@H]5C[C@@H]6CC[C@H]5C6)c4n3)cc2)CC1 (single isomer, unassigned) [Co. No. 23] ?
0.1

Need IC50, item `CN1CCN(c2ccc(Nc3ncc4[nH]c(=O)n(C5CCCCC5)c4n3)cc2Cl)CC1`
6.31

For `O=c1[nH]n(C2CCCCC2)c2nc(Nc3ccc(N4CCC(CCCO)CC4)cc3)ncc12` , what is its reported IC50?
3.16

Sample `NS(=O)(=O)N1CCN(Cc2ccc(Nc3ncc4cnn(C5CCCCC5)c4n3)cc2)CC1` — what was its IC50?
0.158

Requested field: IC50. Item: `CC(=O)N1CCN(c2ccc(Nc3ncc4[nH]c(=O)n(C5CCCCC5)c4n3)cc2)CC1`
2.51

For the compound shown here, `CN1CCN(c2ccc(Nc3ncc4cnn(C5CCCCC5)c4n3)cc2Cl)CC1` , give the reported IC50.
0.158

Can you look up the measured IC50 of `CC(C)(C)OC(=O)N(c1ccc(CN2CCOCC2)cc1)c1ncc2cnn([C@H]3C[C@@H]4CC[C@H]3C4)c2n1` for me?
3.16

What value of IC50 has been recorded for this entry: `COCCCC(=O)N1CCN(Cc2ccc(Nc3ncc4cnn(C5CCCCC5)c4n3)cc2)CC1`
0.2

I: c1cc(Nc2ncc3cnn([C@H]4C[C@@H]5CC[C@H]4C5)c3n2)ccc1CN1CCOCC1
II: O=c1[nH]c2cnc(Nc3ccc(S(=O)(=O)N4CCOCC4)cc3)nc2n1C1CCCCC1
III: CN1CCN(Cc2ccc(Nc3ncc4cnn([C@H]5C[C@@H]6CC[C@H]5C6)c4n3)cc2)CC1 [compound 40]
IV: CN1CCN(Cc2ccc(Nc3ncc4cnn(C5CCCCC5)c4n3)cc2)CC1
V: c1cc(Nc2ncc3cnn(C4CCOCC4)c3n2)ccc1CNCCN1CCOCC1
hey, can you rank those compounds up there by IC50? biggest number first please The reply should contain the labels ordered as requested.
V, II, IV, III, I
(V: 5.01 µM, II: 3.16 µM, IV: 0.501 µM, III: 0.316 µM, I: 0.158 µM)
